Here, each record is paired with measured TGI data.
Assay Comment: Cytotoxicity against human Hs578T cells assessed as growth inhibition after 48 hrs by SRB assay
Type: functional
Conditions Used: Hs-578T

>  <Smiles Input>
CN(C)CCCSc1nc2ccc3c(c2[nH]1)C(=O)c1ccccc1C3=O

>  <Value Modifier>
=

>  <TGI [µM]>
22.9

$$$$
>  <Smiles Input>
CCSc1nc2ccc3c(c2[nH]1)C(=O)c1ccccc1C3=O

>  <Value Modifier>
>

>  <TGI [µM]>
100

$$$$
>  <Smiles Input>
CCCSc1nc2ccc3c(c2[nH]1)C(=O)c1ccccc1C3=O

>  <Value Modifier>
=

>  <TGI [µM]>
83

$$$$
>  <Smiles Input>
O=C1c2ccccc2C(=O)c2c1ccc1nc(SCCN3CCCC3)[nH]c21

>  <Value Modifier>
=

>  <TGI [µM]>
25.8

$$$$
